Reported melting point values for a set of compounds

COC(=O)c1ccc(Cc2cn(C)c3ccc(CCNC(=O)N(C)C)cc23)c(OC)c1 :: 122 to 124 °C
COc1cc2c(cc1OCc1ccccc1)CCN(Cc1cccnc1)C2 :: 78 to 79 °C
O=C(NC1CCCC1)c1ccccc1C(c1ccc(O)cc1)c1ccc(O)cc1 :: 148 to 150 °C
O=C(c1ccnc(F)c1)N1CCC[C@H](c2noc(-c3ccc(F)cc3)n2)C1 :: 117 to 119 °C

We now examine a further compound.
Find the measured melting point of Cc1ccc(CCc2ccnc(N)c2N)cc1 and report it.
119 to 121 °C

---

Reported melting point values for a set of molecules

Previously resolved entries follow.
CCCCCCCCCCCCCCC1COC2(CC(c3ccccc3)N(O)C(c3ccccc3)C2)O1 (stereo not given) :: 98 to 100 °C
Cc1cccc(-c2cc(C(F)(F)F)n3cnc(C#N)c3n2)c1 :: 202 °C
Cc1cn(C(C)C(N)=O)nc1-c1ccccc1 (stereo not given) :: 99 to 101 °C
O=C(O)c1cccc(-c2ccc3c(c2)C(c2cc(Cl)ccc2Cl)CC3)c1 (stereo not given) :: 229 to 230 °C
O=[N+]([O-])c1ccc(NN=CCCc2ccc(F)cc2)cc1 :: 125 to 127 °C

Find the measured melting point of COc1cc(C=Cc2c(CO)ccc(OC)c2OC)cc(OC)c1OC and report it.
120 to 121 °C

Find the measured melting point of C=CCCc1cc(C2(c3ccc(OC(F)F)cc3)N=C(N)N(C)C2=O)ccc1F (stereo not given) and report it.
55 to 58 °C

Find the measured melting point of COc1cn(-c2cccc(C3=CCOCC3)c2F)nc(-c2ccnn2-c2ccccc2)c1=O and report it.
138 to 141 °C

Find the measured melting point of CCOC(=O)C=Cc1ccc(C(=O)Cc2ccccc2)cc1 and report it.
110 to 111 °C

---

READOUT: melting point

Previously resolved entries follow.
CCCCCC1(C(=O)Oc2ccc(C(=O)O)cc2)CC2=C(C1)C(C)(C)CCC2(C)C :: 156 to 158 °C
O=C1c2ccccc2N(c2ccc(F)cc2)C2=NCCN12 :: 278 to 280 °C

Find the measured melting point of COC(=O)c1ccc(CCc2nc(NC(C)=O)sc2Cc2ccc(S(C)(=O)=O)cc2)cc1 and report it.
209 to 210 °C

Find the measured melting point of CCc1noc(-c2cn(-c3nccnn3)cn2)n1 and report it.
181 to 182 °C

Find the measured melting point of O=C(CCc1ccccc1)c1ccc(Cl)cc1 and report it.
78 to 79 °C

Find the measured melting point of Cc1c(C(=O)N(C)Cc2ccc3c(Br)c(OCc4nnn[nH]4)ccc3c2)oc2ccccc12 and report it.
164 to 166 °C

Find the measured melting point of O=c1c2[nH]cnc2n(CC2CCCCC2)c(=O)n1CC1CC1 and report it.
181 °C

Find the measured melting point of CCOC(=O)c1cc(=O)cc(-c2ccc(OC)cc2)o1 and report it.
131 to 133 °C

Find the measured melting point of O=C1C(Cl)=Cc2c(Cl)cc3c4c(c(Cl)cc1c24)C=C(Cl)C3=O and report it.
315 to 320 °C

Find the measured melting point of Cc1nc[nH]c1CSCCNc1cc[nH]c(=O)n1 and report it.
249 to 251 °C
